Would you mind telling me the reported log10 of IC50 of each entry?
Biological target: SAE1 (Homo sapiens (Human), UniProt Q9UBE0+Q9UBT2)
Sequence (Q9UBE0 whole entry): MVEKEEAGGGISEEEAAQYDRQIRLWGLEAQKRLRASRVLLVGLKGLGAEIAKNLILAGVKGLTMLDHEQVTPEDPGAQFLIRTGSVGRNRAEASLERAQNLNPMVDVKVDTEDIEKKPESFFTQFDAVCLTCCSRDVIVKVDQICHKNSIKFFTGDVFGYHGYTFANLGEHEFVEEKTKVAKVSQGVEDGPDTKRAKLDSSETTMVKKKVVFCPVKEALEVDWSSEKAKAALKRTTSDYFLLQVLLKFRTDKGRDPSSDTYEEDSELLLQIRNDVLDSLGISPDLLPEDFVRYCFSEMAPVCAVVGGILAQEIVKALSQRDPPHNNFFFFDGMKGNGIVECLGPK
Sequence (Q9UBT2 whole entry): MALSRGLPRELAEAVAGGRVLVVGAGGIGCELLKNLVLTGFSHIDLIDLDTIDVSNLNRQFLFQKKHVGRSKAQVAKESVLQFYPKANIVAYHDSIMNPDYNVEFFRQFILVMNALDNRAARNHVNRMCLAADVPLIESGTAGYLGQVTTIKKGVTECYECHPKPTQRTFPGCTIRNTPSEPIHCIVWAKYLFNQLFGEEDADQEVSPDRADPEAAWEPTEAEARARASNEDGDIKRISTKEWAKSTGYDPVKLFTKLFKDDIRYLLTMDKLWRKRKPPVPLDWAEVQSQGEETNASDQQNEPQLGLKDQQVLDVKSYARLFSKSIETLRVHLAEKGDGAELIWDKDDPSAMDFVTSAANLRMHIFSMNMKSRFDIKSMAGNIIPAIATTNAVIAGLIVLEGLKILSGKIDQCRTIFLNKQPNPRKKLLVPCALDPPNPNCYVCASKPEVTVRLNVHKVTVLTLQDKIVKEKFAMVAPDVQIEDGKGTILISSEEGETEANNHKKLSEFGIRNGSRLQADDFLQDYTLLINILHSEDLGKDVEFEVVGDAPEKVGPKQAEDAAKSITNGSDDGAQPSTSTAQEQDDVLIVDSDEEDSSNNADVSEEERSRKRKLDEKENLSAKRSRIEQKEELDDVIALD
Assay: SAE High Throughput Biochemical Assay (HTRF), 15 min preincubation
Settings: read-out: 15 min preincubation HTRF IC50 (μM) Ave, SAE1 12.5 nM, ATP 100 μM
Quick note: numbers are log10 of IC50, with µM as the unit.

The molecule identified as CCn1cc(-c2ccccc2[C@@H]2CN(C(=O)C#CCN3CCN(C)CC3)Cc3sc(C#N)cc32)c(C(F)(F)F)n1 registered its log10 of IC50 at 0.34

# log10 of IC50 (molecule: CCn1cc(-c2c([C@@H]3CN(C(=O)/C=C/CN(C)C)Cc4sc(C#N)cc43)ccc(O)c2F)c(C(F)(F)F)n1 ) is -0.09

Lab note: CN(C)C/C=C/C(=O)N1Cc2sc(C#N)cc2C(c2ccccc2-c2cn(CCC#N)nc2C(F)(F)F)C1 (stereo not shown) gave log10 of IC50 of 0.87

response.value for CC[C@H]1CNC(/C=C/C(=O)N2Cc3sc(C#N)cc3[C@H](c3cccc(F)c3-c3cn(CC)nc3C(F)(F)F)C2)C1 (stereo partly shown) (field: log10 of IC50) = -0.41

Reported log10 of IC50 for CN(C)C/C=C/C(=O)N1Cc2sc(C#N)cc2[C@H](c2ccccc2-c2cn(-c3c(F)cncc3F)nc2C(F)(F)F)C1 was 0.66

Summary for this molecule, CCn1cc(-c2ccccc2[C@@H]2CN(C(=O)/C=C/CCN(C)C)Cc3sc(C#N)cc32)c(C(F)(F)F)n1 : log10 of IC50 is 1.26

log10 of IC50 for CCn1cc(-c2c(F)cccc2[C@@H]2CN(C(=O)/C=C/CN[C@H]3CCOC3)Cc3sc(C#N)cc32)c(C(F)(F)F)n1 is 0.04

---

Target: SAE1 (Homo sapiens (Human), UniProt Q9UBE0+Q9UBT2)
Assay: SAE High Throughput Biochemical Assay (HTRF), 15 min preincubation
Details: read-out: 15 min preincubation HTRF IC50 (μM) Ave, SAE1 12.5 nM, ATP 100 μM
Give log10 IC50 for every item shown.
Units before log transform: µM; reported quantity: IC50; transform: log10.

For reference, reported log10 IC50 for CCCCNC/C=C/C(=O)N1Cc2sc(C#N)cc2[C@H](c2ccccc2-c2cn(CC)nc2C(F)(F)F)C1 stands at 0.42

Kindly note the recorded log10 IC50 for C=CC(=O)N1Cc2sc(C#N)c(C)c2C(c2ccccc2-c2cn(CC)nc2C(F)(F)F)C1 (stereo not shown) , which is -0.80

log10 IC50 in this record for CN(C)C/C=C/C(=O)N1Cc2sc(C#N)cc2[C@H](c2ccccc2-c2cn(CCc3ccccn3)nc2C(F)(F)F)C1 : 1.30

Notebook: CN(C)C/C=C/C(=O)N1Cc2sc(C#N)cc2C(c2ccccc2-c2c[nH]nc2C(F)(F)F)C1 (stereo not shown) , log10 IC50 read as 1.02

Looking up CCn1cc(-c2ccccc2C2CN(C(=O)/C=C/CN(C)C)Cc3sc(C#N)c(C)c32)c(C(F)(F)F)n1 (stereo not shown) , I see its log10 IC50 listed as 0.13

response.value for Cc1c(C#N)sc2c1[C@H](c1cccc(F)c1-c1c[nH]nc1C(F)(F)F)CN(C(=O)/C=C/CN(C)C)C2 (field: log10 IC50) = -0.46

---

System: sumoylation levels (SUMO 2/3 conjugates) in HCT-116 cells
Experiment: HCT-116 4 Hour Cell Assay (Western, SUMO 2/3 conjugates)
Format: cell-based
Conditions: 4 h treatment, Anti-Sumo 2-3 immunoblot, read-out: HCT-116 Western 4 h IC50 (μM) Ave
endpoint: IC50 (µM)
Answer format: numeric, µM implied, no suffix.

Entry CCn1cc(-c2c(F)cccc2[C@@H]2CN(C(=O)/C=C/[C@@H]3C[C@H]4C[C@H]4N3)Cc3sc(C#N)cc32)c(C(F)(F)F)n1 , tested on sumoylation levels (SUMO 2/3 conjugates) in HCT-116 cells, has a reported IC50 of 0.451

The recorded IC50 with sumoylation levels (SUMO 2/3 conjugates) in HCT-116 cells for CCn1cc(-c2c(F)cccc2[C@@H]2CN(C(=O)/C=C/CNC)Cc3sc(C#N)c(C)c32)c(C(F)(F)F)n1 was 0.18

---

Exercise: state measured log10(IC50) for each of the compounds provided.
Target: SAE1 (Homo sapiens (Human), UniProt Q9UBE0+Q9UBT2)
Assay: SAE High Throughput Biochemical Assay (HTRF), 15 min preincubation
Details: read-out: 15 min preincubation HTRF IC50 (μM) Ave, SAE1 12.5 nM, ATP 100 μM
In our notation, the value equals log10 of IC50 in µM.

# log10(IC50) (compound: CCn1cc(-c2ccccc2[C@@H]2CN(C(=O)C#CC3CCNC3)Cc3sc(C#N)cc32)c(C(F)(F)F)n1 (stereo partly shown) ) is 0.28

The compound identified as CCn1cc(-c2ccccc2[C@@H]2CN(C(=O)C#CC3(N)CCCC3)Cc3sc(C#N)cc32)c(C(F)(F)F)n1 registered its log10(IC50) at -0.30

Noted for CCn1cc(-c2cc(Cl)ccc2C2CN(C(=O)/C=C/CN(C)C)Cc3sc(C#N)cc32)c(C(F)(F)F)n1 (stereo not shown) : its log10(IC50) reads 1.07

The recorded log10(IC50) for entry CN(C)C/C=C/C(=O)N1Cc2sc(C#N)cc2[C@H](c2ccccc2-c2cn(CCC(=O)O)nc2C(F)(F)F)C1 equals 1.24

The compound identified as CCN(CC)C/C=C/C(=O)N1Cc2sc(C#N)cc2[C@H](c2ccccc2-c2cn(CC)nc2C(F)(F)F)C1 registered its log10(IC50) at 0.93

In plain terms, CCn1cc(-c2ccccc2[C@@H]2CN(C(=O)/C=C/C3CCCCN3)Cc3sc(C#N)cc32)c(C(F)(F)F)n1 (stereo partly shown) has a documented log10(IC50) of 0.53

---

Molecular target: SAE1 (Homo sapiens (Human), UniProt Q9UBE0+Q9UBT2)
Test: SAE High Throughput Biochemical Assay (HTRF), 15 min preincubation
Conditions: read-out: 15 min preincubation HTRF IC50 (μM) Ave, SAE1 12.5 nM, ATP 100 μM
endpoint: IC50 (µM)
# unit: µM | format: bare number

So, Cc1c(C#N)sc2c1[C@H](c1cccc(F)c1-c1cn(C)nc1C(F)(F)F)CN(C(=O)/C=C/[C@@H]1CCCN1)C2 ? Its IC50 was 0.11

IC50 measured on CCn1cc(-c2ccccc2[C@@H]2CN(C(=O)/C=C/[C@H]3C[C@@H](C)CN3)Cc3sc(C#N)cc32)c(C(F)(F)F)n1 = 2.69

Field IC50 (entry CCn1cc(-c2ccccc2[C@@H]2CN(C(=O)C#CCOC)Cc3sc(C#N)cc32)c(C(F)(F)F)n1 ) reads 0.54

The molecule CCn1cc(-c2ccccc2[C@@H]2CN(C(=O)/C=C/[C@@H](C)NC)Cc3sc(C#N)cc32)c(C(F)(F)F)n1 showed IC50 equal to 18.2

---

Assay: Caco-2 permeability/efflux
Format: in vitro ADME
Conditions: human, Caco-2, pH 7.4; B-A / A-B
Assign efflux ratio at 90 min, 10 μM to each entry below.
// response body must contain only the number

Record summary for CCn1cc(-c2c(F)cccc2[C@@H]2CN(C(=O)/C=C/CNC)Cc3sc(C#N)c(C)c32)c(C(F)(F)F)n1 : reported efflux ratio at 90 min, 10 μM = 2

Lab note: measured efflux ratio at 90 min, 10 μM of C=CC(=O)N1Cc2sc(C#N)c(C)c2[C@H](c2cccc(F)c2-c2cn(CC)nc2C(F)(F)F)C1 was 1

Summary for this compound, CCn1cc(-c2c(F)cccc2[C@@H]2CN(C(=O)/C=C/CN(C)C)Cc3sc(C#N)cc32)c(C(F)(F)F)n1 : efflux ratio at 90 min, 10 μM is 1

response.value for CCn1cc(-c2ccccc2[C@@H]2CN(C(=O)/C=C/CNC)Cc3sc(C#N)cc32)c(C(F)(F)F)n1 (field: efflux ratio at 90 min, 10 μM) = 5

// field: efflux ratio at 90 min, 10 μM; key: CCn1cc(-c2c(F)cccc2[C@@H]2CN(C(=O)/C=C/CNC)Cc3sc(C#N)cc32)c(C(F)(F)F)n1 ; value = 6

Noted for CCn1cc(-c2c(F)cccc2[C@@H]2CN(C(=O)/C=C/CN(C)C)Cc3sc(C#N)c(C)c32)c(C(F)(F)F)n1 : its efflux ratio at 90 min, 10 μM reads 1

---

I'd appreciate it if you could supply log10 IC50 values for the items below.
Molecular target: SAE1 (Homo sapiens (Human))
A value of 2 here means IC50 of 100 in nM, since values are log10.

Recorded log10 IC50 (compound COc1cncnc1-n1cc(-c2ccccc2[C@@H]2CN(C(=O)/C=C/CN(C)C)Cc3sc(C#N)cc32)c(C(F)(F)F)n1 ): 4.22

// sample CCC(N)/C=C/C(=O)N1Cc2sc(C#N)cc2[C@H](c2ccccc2-c2cn(CC)nc2C(F)(F)F)C1 (stereo partly drawn) , its log10 IC50 was 3.93

Value of log10 IC50 reported for the compound [2H]C([2H])([2H])N(C/C=C/C(=O)N1Cc2sc(C#N)cc2[C@H](c2cccc(F)c2-c2cn(CC)nc2C(F)(F)F)C1)C([2H])([2H])[2H] is 3.05

Noted for CNC/C=C/C(=O)N1Cc2sc(C#N)c(C)c2[C@H](c2cccc(F)c2-c2cn(C)nc2C(F)(F)F)C1 : its log10 IC50 reads 2.26

Recorded result, CCn1cc(-c2ccccc2[C@@H]2CN(C(=O)C#CC(C)(C)N)Cc3sc(C#N)cc32)c(C(F)(F)F)n1 , log10 IC50: 2.51

So, CCn1cc(-c2c(F)cccc2[C@@H]2CN(C(=O)/C=C/[C@@H]3CCCN3)Cc3sc(C#N)c(C)c32)c(C(F)(F)F)n1 ? Its log10 IC50 was 2.15
